Items are presented alongside their recorded half-life at 3 µM.
assay: Metabolic stability in mouse liver microsomes assessed as half life at 3 uM measured up to 45 mins in presence of NADPH by LC-MS/MS analysis; format: ADME, Microsome
Expressed in h, but write only the number.

COC(=O)c1cc(OC[C@@H](COS(=O)(=O)[O-])OS(=O)(=O)[O-])ccc1OC[C@H](COS(=O)(=O)[O-])OS(=O)(=O)[O-].[Na+].[Na+].[Na+].[Na+] 30.7

What measured half-life at 3 µM goes with COC(=O)c1cc(OC[C@H](COS(=O)(=O)[O-])OS(=O)(=O)[O-])ccc1OC[C@@H](COS(=O)(=O)[O-])OS(=O)(=O)[O-].[Na+].[Na+].[Na+].[Na+] ? 8.03

###

system: HepG2; assay: Antioxidant activity in human HepG2 cells assessed as decrease in FFA-induced oxidatively stress by measuring NO production using DAF-2 by H2DCFDA dye based fluorescence assay relative to control; type: functional; design: concentration or dose not given beside the values
Assign 1 to entries whose Activity meets or exceeds 50%; assign 0 to the rest.

Molecule	Group
O=C([O-])c1cc(OC[C@H](O)CO)ccc1OC[C@@H](O)CO.[Na+] (mixture of isomers)	0

Does the molecule COC(=O)c1cc(OC[C@@H](COS(=O)(=O)[O-])OS(=O)(=O)[O-])ccc1OC[C@H](COS(=O)(=O)[O-])OS(=O)(=O)[O-].[Na+].[Na+].[Na+].[Na+] have recorded Activity that is 50% or more? 1

Does the molecule COC(=O)c1cc(OC[C@@H](COS(=O)(=O)[O-])OS(=O)(=O)[O-])ccc1OCCCCOS(=O)(=O)[O-].[Na+].[Na+].[Na+] have recorded Activity that is 50% or more? 1

Does the molecule O=C([O-])c1cc(OC[C@@H](O)CO)ccc1OC[C@H](O)CO.[Na+] (mixture of isomers) have recorded Activity that is 50% or more? 1

Does the molecule COC(=O)c1cc(OC[C@H](COS(=O)(=O)[O-])OS(=O)(=O)[O-])ccc1OC[C@@H](COS(=O)(=O)[O-])OS(=O)(=O)[O-].[Na+].[Na+].[Na+].[Na+] have recorded Activity that is 50% or more? 1

Does the molecule COC(=O)c1cc(OC[C@H](O)CO)ccc1OC[C@@H](O)CO (mixture of isomers) have recorded Activity that is 50% or more? 0

Does the molecule COC(=O)c1cc(OC[C@H](COS(=O)(=O)[O-])OS(=O)(=O)[O-])ccc1OCCCCOS(=O)(=O)[O-].[Na+].[Na+].[Na+] have recorded Activity that is 50% or more? 1

###

system: HepG2 (Homo sapiens); assay: Cytotoxicity against HepG2 cells assessed as reduction in cell viability incubated for 72 hrs by MTT assay; settings: hepg2, 72 h
Metric Name: Activity

COC(=O)c1cc(OC[C@@H](COS(=O)(=O)[O-])OS(=O)(=O)[O-])ccc1OC[C@H](COS(=O)(=O)[O-])OS(=O)(=O)[O-].[Na+].[Na+].[Na+].[Na+] Non-Toxic
COC(=O)c1cc(OC[C@H](COS(=O)(=O)[O-])OS(=O)(=O)[O-])ccc1OCCCCOS(=O)(=O)[O-].[Na+].[Na+].[Na+] Non-Toxic
COC(=O)c1cc(OC[C@@H](COS(=O)(=O)[O-])OS(=O)(=O)[O-])ccc1OCCCCOS(=O)(=O)[O-].[Na+].[Na+].[Na+] Non-Toxic
COC(=O)c1cc(OC[C@H](COS(=O)(=O)[O-])OS(=O)(=O)[O-])ccc1OC[C@@H](COS(=O)(=O)[O-])OS(=O)(=O)[O-].[Na+].[Na+].[Na+].[Na+] Non-Toxic

###

Target: Nitric oxide synthase 3 (Homo sapiens) (UniProt P29474)
Sequence (whole entry): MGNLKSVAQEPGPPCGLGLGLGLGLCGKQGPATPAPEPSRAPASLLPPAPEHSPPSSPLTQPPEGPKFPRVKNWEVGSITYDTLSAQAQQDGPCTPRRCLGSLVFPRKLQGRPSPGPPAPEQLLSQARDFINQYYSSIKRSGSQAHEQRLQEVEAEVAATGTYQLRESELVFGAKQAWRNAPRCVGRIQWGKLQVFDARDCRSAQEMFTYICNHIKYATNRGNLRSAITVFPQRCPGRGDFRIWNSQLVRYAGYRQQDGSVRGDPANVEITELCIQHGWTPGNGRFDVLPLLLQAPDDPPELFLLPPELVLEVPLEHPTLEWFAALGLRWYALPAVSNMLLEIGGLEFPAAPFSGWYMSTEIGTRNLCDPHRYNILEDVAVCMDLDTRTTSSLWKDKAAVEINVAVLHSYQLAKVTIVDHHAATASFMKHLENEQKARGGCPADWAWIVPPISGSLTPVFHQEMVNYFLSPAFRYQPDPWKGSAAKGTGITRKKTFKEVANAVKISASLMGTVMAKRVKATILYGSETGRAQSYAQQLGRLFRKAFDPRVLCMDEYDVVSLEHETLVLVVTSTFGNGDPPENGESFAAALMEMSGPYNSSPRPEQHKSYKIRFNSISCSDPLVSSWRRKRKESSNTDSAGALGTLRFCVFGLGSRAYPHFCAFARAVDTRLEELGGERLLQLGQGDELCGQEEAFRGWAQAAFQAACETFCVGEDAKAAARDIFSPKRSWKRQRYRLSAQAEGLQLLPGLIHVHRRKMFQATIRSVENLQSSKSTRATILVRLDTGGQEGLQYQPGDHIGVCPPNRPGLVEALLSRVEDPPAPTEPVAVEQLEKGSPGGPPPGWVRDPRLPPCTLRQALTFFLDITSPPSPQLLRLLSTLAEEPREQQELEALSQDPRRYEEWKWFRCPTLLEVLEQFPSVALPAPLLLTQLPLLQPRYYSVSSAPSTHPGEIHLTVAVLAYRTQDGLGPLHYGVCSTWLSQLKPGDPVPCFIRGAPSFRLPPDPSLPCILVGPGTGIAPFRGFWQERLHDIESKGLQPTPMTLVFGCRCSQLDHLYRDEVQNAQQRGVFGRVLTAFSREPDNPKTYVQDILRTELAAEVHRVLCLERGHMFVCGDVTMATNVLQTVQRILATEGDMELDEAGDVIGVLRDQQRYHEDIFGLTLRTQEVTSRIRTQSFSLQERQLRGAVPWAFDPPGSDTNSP
Experiment: Induction of eNOS phosphorylation in FFA-induced oxidatively stress human HepG2 cells by Western blot analysis relative to control
Set-up: concentration or dose not given beside the values
Metric Name: Activity (%)
Expressed in %, but write only the number.

Molecule	Metric Name	Numeric Result
COC(=O)c1cc(OC[C@@H](COS(=O)(=O)[O-])OS(=O)(=O)[O-])ccc1OCCCCOS(=O)(=O)[O-].[Na+].[Na+].[Na+]	Activity	397
O=C([O-])c1cc(OC[C@@H](O)CO)ccc1OC[C@H](O)CO.[Na+] (mixture of isomers)	Activity	294
COC(=O)c1cc(OC[C@H](COS(=O)(=O)[O-])OS(=O)(=O)[O-])ccc1OC[C@@H](COS(=O)(=O)[O-])OS(=O)(=O)[O-].[Na+].[Na+].[Na+].[Na+]	Activity	318
O=C([O-])c1cc(OC[C@H](O)CO)ccc1OC[C@@H](O)CO.[Na+] (mixture of isomers)	Activity	312
COC(=O)c1cc(OC[C@H](O)CO)ccc1OC[C@@H](O)CO (mixture of isomers)	Activity	286

What measured Activity goes with COC(=O)c1cc(OC[C@@H](COS(=O)(=O)[O-])OS(=O)(=O)[O-])ccc1OC[C@H](COS(=O)(=O)[O-])OS(=O)(=O)[O-].[Na+].[Na+].[Na+].[Na+] ? 342

What measured Activity goes with COC(=O)c1cc(OC[C@H](COS(=O)(=O)[O-])OS(=O)(=O)[O-])ccc1OCCCCOS(=O)(=O)[O-].[Na+].[Na+].[Na+] ? 613
